These measurements were taken from patent US10111854B2.

tested on: L. braziliensis UA847 amastigotes; experiment: Anti-amastigote activity in infected PEM, L. braziliensis UA847; type: cell-based; conditions: Leishmania braziliensis, 72 h, 3 days, Giemsa, read-out: Anti-amastigote activity IC50, L. baziliensis UA847
Catalogue of IC50 values
MEASURED_QUANTITY: IC50

>>> endpoint_value("O=c1cc(-c2ccc(OCCOCCN(Cc3ccccc3)Cc3ccccc3)cc2)oc2ccccc12")
"< 0.37 µM"
>>> endpoint_value("CS(=O)(=O)NCCOCCOc1ccc(-c2cc(=O)c3ccccc3o2)cc1")
"> 10 µM"
>>> endpoint_value("O=C(NCCOCCOc1ccc(-c2cc(=O)c3ccccc3o2)cc1)c1ccncc1")
"> 10 µM"

====

tested on: L. donovani Ld39 amastigotes (SSG-resistant); test: Anti-amastigote activity in infected PEM, L. donovani Ld39; type: cell-based; details: Leishmania donovani, 72 h; infected PEM, 3 days, Giemsa; SSG-resistant
Catalogue of IC50 values
MEASURED_QUANTITY: IC50

>>> endpoint_value("CS(=O)(=O)NCCOCCOc1ccc(-c2cc(=O)c3ccccc3o2)cc1")
"> 10 µM"
>>> endpoint_value("O=c1cc(-c2ccc(OC[C@@H]3CCCN3Cc3ccncc3)cc2)oc2ccccc12")
"> 10 µM"
>>> endpoint_value("O=C(COc1ccc(-c2cc(=O)c3ccccc3o2)cc1)N1CCNCC1")
"> 10 µM"

====

test system: L. amazonensis LV78 amastigotes; experiment: Anti-amastigote activity in infected PEM, L. amazonensis LV78; format: cell-based; details: Leishmania amazonensis, 72 h; infected PEM, 3 days, Giemsa
pIC50: −log10 of the molar value.
MEASURED_QUANTITY: pIC50

>>> endpoint_value("CN(C)CCOCCOc1ccc(-c2cc(=O)c3ccccc3o2)cc1")
5.35
>>> endpoint_value("O=c1cc(-c2ccc(OCCC3CCN(Cc4ccccn4)CC3)cc2)oc2ccccc12 [FM05a]")
5.45

====

Catalogue of IC50 values
test system: L. donovani Ld39 amastigotes (SSG-resistant); assay: Anti-amastigote activity in infected PEM, L. donovani Ld39; type: cell-based; conditions: Leishmania donovani, 72 h; infected PEM, 3 days, Giemsa; SSG-resistant
MEASURED_QUANTITY: IC50

>>> endpoint_value("O=c1cc(-c2ccc(OCCC3CCN(Cc4ccncc4)CC3)cc2)oc2ccccc12")
"> 10 µM"
>>> endpoint_value("O=C(COc1ccc(-c2cc(=O)c3ccccc3o2)cc1)N1CCN(Cc2ccncc2)CC1")
"> 10 µM"
>>> endpoint_value("O=c1cc(-c2ccc(OCCN3CCN(Cc4ccncc4)CC3)cc2)oc2ccccc12")
"> 10 µM"
>>> endpoint_value("O=c1cc(-c2ccc(OCCOCCN(Cc3ccccn3)Cc3ccccn3)cc2)oc2ccccc12")
"< 0.37 µM"

====

system: L. amazonensis LV78 promastigotes; assay: Anti-promastigote activity (MTS assay), L. amazonensis LV78; format: cell-based; conditions: Leishmania amazonensis, 72 hours
pIC50: −log10 of the molar value.
MEASURED_QUANTITY: pIC50

>>> endpoint_value("O=C(COc1ccc(-c2cc(=O)c3ccccc3o2)cc1)N1CCN(C(=O)c2ccncc2)CC1")
"< 4.00"
>>> endpoint_value("CS(=O)(=O)NCCOCCOc1ccc(-c2cc(=O)c3ccccc3o2)cc1")
"< 4.00"
>>> endpoint_value("O=C(NCCOCCOc1ccc(-c2cc(=O)c3ccccc3o2)cc1)c1ccncc1")
"< 4.00"
